PROCEDURE DETAILS: Acute oral toxicity in the rat
CONDITION DETAILS: in vivo, per os, maximum dose practically possible
ENDPOINT: LD50

Return LD50 for the following molecule: OC[C@H]1O[C@H](O[C@]2(CCl)O[C@H](CCl)[C@@H](O)[C@@H]2O)[C@H](O)[C@@H](O)[C@H]1Cl [Compound no. 5]
> 16000 mg/kg
